Listed here are molecules together with their documented normalized growth.
Method description: chemical genetic growth profiling, strain panel (AID 1159580);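 also: tested at 20 µM; growth read once vehicle control cultures reached saturation at 30 °C; 1 = growth at the plate median or of vehicle wells; lower values mean less growth of the strain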
Assay conditions: S. cerevisiae deletion strains, growth OD, locus YEL061C, strain CIN8, stronger effect = lower value
The whole screen tested about 5,500 compounds, of which about 2,000 (36%) were called active. Another 18% or so got no clear call; they are omitted. The list shows a part of the results.
// no unit string in output, number only

For orientation, consider the following solved cases.
>>> df
                                   molecule   measurement_name  reported_measurement
0  O=C(O)Cc1cc(I)c(Oc2cc(I)c(O)c(I)c2)c(I)c1  normalized growth                 0.964
1  N[C@@H](Cc1cc(I)c(Oc2cc(I)c(O)c(I)c2)c(I)c1)C(=O)O  normalized growth                  1.05
2  CSc1ccc2c(c1)N(CCC1CCCCN1C)c1ccccc1S2 (stereo unspecified)  normalized growth                 0.196
3  N[C@H](Cc1cc(I)c(Oc2ccc(O)c(I)c2)c(I)c1)C(=O)O  normalized growth                  1.01
4                              NNCCc1ccccc1  normalized growth                  0.98

### Prompt Report measured normalized growth; entry is "N[C@H](Cc1ccccc1)C(=O)O"
### Response 1.01

### Prompt Output measured normalized growth for this item: "Cc1ccc(OCc2nnc(SCC(=O)Nc3cccc4c3OCO4)n2-c2ccccc2)c2c1CCC2"
### Response 0.99

### Prompt Kindly indicate its recorded normalized growth. Item: "CC(=O)Nc1ccc(S(=O)(=O)NC2Cc3ccccc3C2)cc1"
### Response 1.01

### Prompt Return normalized growth for the following molecule: "O=C(O)Cc1ccccc1I"
### Response 1.02

### Prompt For the molecule "N[C@@H](Cc1cc(I)c(Oc2ccc(O)c(I)c2)c(I)c1)C(=O)O" , report normalized growth.
### Response 1

### Prompt Return value of normalized growth for input "CCCCC[C@H](CC(=O)NO)C(=O)N[C@H](C(=O)N1CCC[C@H]1CO)C(C)C" , no commentary.
### Response 1.01
